Experiment: in vivo
Conditions: male, Hartley albino, guinea pig, ip, 42 mg/kg, Mean Cmax ± SD, plasma analyte after N-Methylbupropion dosed at 42 mg/Kg IP, n = 5
Experimental: The column used for chromatographic separation was a Waters Xbridge C18, 2.1 × 50 mm 2.5 µm at 30 °C. Mobile phase A: 10:40:50, 1.0% ammonium hydroxide solution in water, adjusted to pH 10.5 with formic acid: water: ACN. Mobile phase B: 10:90, 1.0% ammonium hydroxide solution in water, adjusted to pH 10.5 with formic acid: ACN. […] Pharmacokinetic calculations were determined on Graphpad Prism software. Michaelis-Menten parameters were determined by non-linear regression analysis. […]
Listed next: entries and their corresponding log10 Cmax.
recorded-endpoint: log10 Cmax (log10 of the value in ng/mL)

compound="CC(NC(C)(C)C)C(=O)c1cccc(Cl)c1 (centres unmarked)" experimental_result=2.58
compound="C[C@H]1NC(C)(C)CO[C@]1(O)c1cccc(Cl)c1 (relative stereo) [BupOH, hydroxybupropion]" experimental_result=2.86
compound="CC(C(=O)c1cccc(Cl)c1)N(C)C(C)(C)C (centres unmarked)" experimental_result=2.26
compound="C[C@@H](NC(C)(C)C)[C@H](O)c1cccc(Cl)c1 [THB, threo-hydrobupropion]" experimental_result=2.99
compound="C[C@H]([C@H](O)c1cccc(Cl)c1)N(C)C(C)(C)C (racemic) [N-Me THB, Rac-N-methyl-threo-hydrobupropion]" experimental_result=1.90

###

Quick list: Cmax per entry.
Assay: in vivo
Conditions: male, Hartley albino, guinea pig, ip, 40 mg/kg, Mean Cmax ± SD
Procedure: The column used for chromatographic separation was a Waters Xbridge C18, 2.1 × 50 mm 2.5 µm at 30 °C. Mobile phase A: 10:40:50, 1.0% ammonium hydroxide solution in water, adjusted to pH 10.5 with formic acid: water: ACN. Mobile phase B: 10:90, 1.0% ammonium hydroxide solution in water, adjusted to pH 10.5 with formic acid: ACN. […] Pharmacokinetic calculations were determined on Graphpad Prism software. Michaelis-Menten parameters were determined by non-linear regression analysis. […]
recorded-endpoint: Cmax (ng/mL)

molecule="C[C@@H](NC(C)(C)C)[C@H](O)c1cccc(Cl)c1 [THB, threo-hydrobupropion]" recorded_endpoint=Cmax experimental_result=1220
molecule="C[C@H]1NC(C)(C)CO[C@]1(O)c1cccc(Cl)c1 (relative stereo) [BupOH, hydroxybupropion]" recorded_endpoint=Cmax experimental_result=950

###

experiment: in vivo; conditions: Hartley, guinea pig, ip, 40 mg/kg
recorded-endpoint: Kp at 20 min

compound="CC(NC(C)(C)C)C(=O)c1cccc(Cl)c1 (stereo not drawn)" recorded_endpoint="Kp at 20 min" experimental_result=11.2
compound="C[C@@H](NC(C)(C)C)[C@H](O)c1cccc(Cl)c1 [THB, threo-hydrobupropion]" recorded_endpoint="Kp at 20 min" experimental_result=6.54
compound="C[C@H]1NC(C)(C)CO[C@]1(O)c1cccc(Cl)c1 (relative stereo) [BupOH, hydroxybupropion]" recorded_endpoint="Kp at 20 min" experimental_result=6.3

###

test: in vivo; details: male, Hartley albino, guinea pig, ip, 40 mg/kg
Below, each of the molecules is paired with its reported half-life value.
recorded-endpoint: half-life

molecule="C[C@H]1NC(C)(C)CO[C@]1(O)c1cccc(Cl)c1 (relative stereo) [BupOH, hydroxybupropion]" experimental_result="6.8 h"
molecule="C[C@@H](NC(C)(C)C)[C@H](O)c1cccc(Cl)c1 [THB, threo-hydrobupropion]" experimental_result="3.3 h"

###

assay: in vivo; details: male, Hartley albino, guinea pig, ip, 40 mg/kg, tmax
recorded-endpoint: Tmax (min)

molecule="C[C@@H](NC(C)(C)C)[C@H](O)c1cccc(Cl)c1 [THB, threo-hydrobupropion]" recorded_endpoint=Tmax experimental_result=19.8

###

Reported Kp at 20 min is given for each of the following molecules.
assay: in vivo; type: in vivo; conditions: Hartley, in vivo; 20 min post dose of 40 mg/Kg bupropion via oral gavage, guinea pig; read-out: Brain/plasma ratio
recorded-endpoint: Kp at 20 min

molecule="CC(NC(C)(C)C)C(=O)c1cccc(Cl)c1 (centres unmarked) [Bup, Bupropion]" recorded_endpoint="Kp at 20 min" experimental_result=4.78
molecule="C[C@@H](NC(C)(C)C)[C@H](O)c1cccc(Cl)c1 [THB, threo-hydrobupropion]" recorded_endpoint="Kp at 20 min" experimental_result=1.17

###

assay: in vivo; conditions: male, Hartley albino, guinea pig, ip, 42 mg/kg, tmax, plasma analyte after N-Methylbupropion dosed at 42 mg/Kg IP, n = 5
Entries annotated with measured Tmax
recorded-endpoint: Tmax (min)

molecule="CC(NC(C)(C)C)C(=O)c1cccc(Cl)c1 (centres unmarked)" recorded_endpoint=Tmax experimental_result=19.8
molecule="C[C@H]([C@H](O)c1cccc(Cl)c1)N(C)C(C)(C)C (racemic) [N-Me THB, Rac-N-methyl-threo-hydrobupropion]" recorded_endpoint=Tmax experimental_result=19.8
molecule="CC(C(=O)c1cccc(Cl)c1)N(C)C(C)(C)C (centres unmarked)" recorded_endpoint=Tmax experimental_result=19.8
molecule="C[C@H]1NC(C)(C)CO[C@]1(O)c1cccc(Cl)c1 (relative stereo) [BupOH, hydroxybupropion]" recorded_endpoint=Tmax experimental_result=60
molecule="C[C@@H](NC(C)(C)C)[C@H](O)c1cccc(Cl)c1 [THB, threo-hydrobupropion]" recorded_endpoint=Tmax experimental_result=60

###

assay: in vivo; settings: male, Hartley albino, guinea pig, ip, 40 mg/kg, tmax, plasma analyte after dosing bupropion 40 mg/Kg IP
Below is a list of entries, each paired with its recorded Tmax value.
recorded-endpoint: Tmax (min)

compound="C[C@@H](NC(C)(C)C)[C@H](O)c1cccc(Cl)c1 [THB, threo-hydrobupropion]" recorded_endpoint=Tmax experimental_result=20
compound="CC(NC(C)(C)C)C(=O)c1cccc(Cl)c1 (centres unmarked)" recorded_endpoint=Tmax experimental_result=20

###

assay: in vivo; format: in vivo; conditions: Hartley, guinea pig, in vivo, po, 40 mg/kg
recorded-endpoint: Kp at 20 min

compound="C[C@H]1NC(C)(C)CO[C@]1(O)c1cccc(Cl)c1 (relative stereo) [BupOH, hydroxybupropion]" recorded_endpoint="Kp at 20 min" experimental_result=0.5

###

Test: in vivo
Settings: Hartley, guinea pig, ip, 42 mg/kg
Protocol: The column used for chromatographic separation was a Waters Xbridge C18, 2.1 × 50 mm 2.5 µm at 30 °C. Mobile phase A: 10:40:50, 1.0% ammonium hydroxide solution in water, adjusted to pH 10.5 with formic acid: water: ACN. Mobile phase B: 10:90, 1.0% ammonium hydroxide solution in water, adjusted to pH 10.5 with formic acid: ACN. Flow rate: 250 µL/min, injection volume: 10 µL, run time: 10 min. […] Guinea pig brain was defrosted. […] The clear solution was vortex mixed and analyzed by LC-MS.
The compounds listed here are annotated with their Kp at 20 min.
recorded-endpoint: Kp at 20 min

compound="C[C@@H](NC(C)(C)C)[C@H](O)c1cccc(Cl)c1 [THB, threo-hydrobupropion]" experimental_result=12.1
compound="CC(C(=O)c1cccc(Cl)c1)N(C)C(C)(C)C (centres unmarked)" experimental_result=20.2
compound="C[C@H]1NC(C)(C)CO[C@]1(O)c1cccc(Cl)c1 (relative stereo) [BupOH, hydroxybupropion]" experimental_result=7.61
compound="C[C@H]([C@H](O)c1cccc(Cl)c1)N(C)C(C)(C)C (racemic) [N-Me THB, Rac-N-methyl-threo-hydrobupropion]" experimental_result=12.6
compound="CC(NC(C)(C)C)C(=O)c1cccc(Cl)c1 (centres unmarked)" experimental_result=17.1

###

This listing pairs molecules with measured concentration at 20 min.
test: in vivo; assay type: in vivo; details: Hartley, in vivo; 20 min post dose of 42 mg/Kg N-methyl bupropion via oral gavage, guinea pig; read-out: Plasma levels
recorded-endpoint: concentration at 20 min

molecule="C[C@@H](NC(C)(C)C)[C@H](O)c1cccc(Cl)c1 [THB, threo-hydrobupropion]" experimental_result="540 ng/mL"
molecule="CC(NC(C)(C)C)C(=O)c1cccc(Cl)c1 (stereo not shown) [Bup, Bupropion]" experimental_result="50 ng/mL"
molecule="CC(C(=O)c1cccc(Cl)c1)N(C)C(C)(C)C (stereo not shown) [N-Me Bup, N-methylbupropion]" experimental_result="20 ng/mL"
molecule="C[C@H]([C@H](O)c1cccc(Cl)c1)N(C)C(C)(C)C (racemic) [N-Me THB, Rac-N-methyl-threo-hydrobupropion]" experimental_result="40 ng/mL"

###

# maps each entry to its concentration at 20 min
test: in vivo; assay type: in vivo; settings: Hartley, in vivo; 20 min post dose of 42 mg/Kg N-methyl bupropion via oral gavage, guinea pig; read-out: Brain levels
recorded-endpoint: concentration at 20 min (ng/g)

compound="CC(NC(C)(C)C)C(=O)c1cccc(Cl)c1 (stereo not drawn) [Bup, Bupropion]" recorded_endpoint="concentration at 20 min" experimental_result=460
compound="C[C@H]([C@H](O)c1cccc(Cl)c1)N(C)C(C)(C)C (racemic) [N-Me THB, Rac-N-methyl-threo-hydrobupropion]" recorded_endpoint="concentration at 20 min" experimental_result=570
compound="C[C@@H](NC(C)(C)C)[C@H](O)c1cccc(Cl)c1 [THB, threo-hydrobupropion]" recorded_endpoint="concentration at 20 min" experimental_result=620

Attribution: paper PMC4078515
